experiment-summary: SUPPLEMENTARY: Lipophilicity (log D) Determination by high-throughput shake-flask
Type: physicochemical
measurement-parameters: octanol/water
logD overview

{"molecule": "Nc1ncc(Cl)c(-c2nc([C@H]3CCCCN3C(=O)COc3ccccc3)no2)n1", "logD": 2.61}
{"molecule": "COc1ccc(Cl)cc1S(=O)(=O)N1COc2ccc(C(=O)Nc3ccn(CC(=O)O)n3)cc21", "logD": -1.22}
{"molecule": "COc1ccc(Cl)cc1S(=O)(=O)N1CCc2c(C)cc(C(=O)Nc3ccc(C(=O)O)c(Cl)c3)cc21", "logD": 0.66}
{"molecule": "COc1ccc(Cl)cc1CN1C(=O)OC(C)(C)c2ccc(C(=O)Nc3ccc(C(=O)O)cc3)cc21", "logD": 2.38}
{"molecule": "COc1ccc(Cl)cc1S(=O)(=O)N1CCc2ccc(C(=O)Nc3nc(CC(=O)O)cs3)cc21", "logD": 0.17}
{"molecule": "O=C(COc1ccccc1)N1CCCC[C@@H]1c1noc(-c2cccc3[nH]cnc23)n1", "logD": 2.84}
{"molecule": "O=C1Cc2ccc(-c3noc([C@H]4CCCCN4C(=O)COc4ccccc4)n3)cc2N1", "logD": 2.63}
{"molecule": "O=C(O)c1cncc(-c2noc([C@H]3CCCCN3C(=O)COc3ccccc3)n2)c1", "logD": -1.07}
{"molecule": "CN1CCN(C(=O)COc2ccccc2)[C@@H](c2nc(-c3cccc(C(F)(F)F)c3)n[nH]2)C1", "logD": 3.19}
{"molecule": "NC(=O)c1ccc(-c2csc([C@H]3CCCCN3C(=O)COc3ccccc3)n2)cc1", "logD": 2.26}
{"molecule": "NC(=O)c1cccc(-c2n[nH]c([C@H]3CCCCN3C(=O)COc3ccccc3)n2)c1", "logD": 2.16}
{"molecule": "COc1ccc(Cl)cc1S(=O)(=O)N1COc2ccc(C(=O)Nc3ccc(C(=O)O)cc3)cc21", "logD": 0.65}
{"molecule": "COc1ccc(Cl)cc1S(=O)(=O)N1CC[S+]([O-])c2ccc(C(=O)Nc3ccc(CC(=O)O)cc3)cc21 (configuration not stated)", "logD": -0.86}
{"molecule": "O=C1CCCN1c1cccc(-c2nc([C@H]3CCCCN3C(=O)COc3ccccc3)no2)c1", "logD": 3.07}
{"molecule": "CN1CCN(c2cc3c(cc2Cl)CN(C(=O)[C@H]2CCCCN2C(=O)COc2ccccc2)C3)CC1", "logD": 2.38}
{"molecule": "NC(=O)c1n[nH]c2cc(-c3noc([C@H]4CCCCN4C(=O)COc4ccccc4)n3)ccc12", "logD": 3.04}
{"molecule": "O=C(O)c1ccc(NC(=O)c2ccc3c(c2)N(Cc2cccc(Cl)c2)C(=O)CS3(=O)=O)cc1", "logD": 0.47}
{"molecule": "O=C([C@H]1CCCCN1C(=O)COc1ccccc1)N1Cc2cc(F)c(OC3CCOCC3)cc2C1", "logD": 2.45}
{"molecule": "CCOc1ccc2c(c1)CN(C(=O)[C@H]1CCCCN1C(=O)COc1ccccc1)C2", "logD": 3.23}
{"molecule": "O=C(COc1ccccc1)N1CCCC[C@@H]1c1nc(-c2ccccc2)cs1", "logD": 3.8}
{"molecule": "O=C(COc1ccccc1)N1CCCC[C@@H]1c1noc(C2CCCCC2)n1", "logD": 3.31}
{"molecule": "Cc1cc(-c2noc([C@H]3CCCCN3C(=O)COc3ccccc3)n2)n(C)n1", "logD": 3.15}
{"molecule": "NS(=O)(=O)c1cccc(-c2noc([C@H]3CCCCN3C(=O)COc3ccccc3)n2)c1", "logD": 2.17}
{"molecule": "O=C(Nc1ccc(-c2nnn[nH]2)cc1)c1nn(Cc2ccc(OC(F)F)cc2)c2ccc(F)cc12", "logD": "> 3"}
{"molecule": "COc1ccc(Cl)cc1Cc1c[nH]c2ccc(C(=O)Nc3nc(CC(=O)O)cs3)cc12", "logD": 1.48}
{"molecule": "CN(Cc1ccccc1)C(=O)[C@H]1CCCCN1C(=O)COc1ccccc1", "logD": 2.62}
{"molecule": "O=C(COc1ccccc1)N1CCCC[C@@H]1c1nc(-c2ccc(F)c(F)c2)n[nH]1", "logD": 2.77}
{"molecule": "COc1ccc(Cl)cc1CN1C(=O)CS(=O)(=O)c2ccc(C(=O)Nc3nc(CC(=O)O)cs3)cc21", "logD": -0.29}
{"molecule": "O=C([C@H]1CCCCN1C(=O)COc1ccccc1)N1Cc2ccc(C3CCOCC3)cc2C1", "logD": 2.8}
{"molecule": "COc1ccc(Cl)cc1S(=O)(=O)N1CCOc2ccc(C(=O)Nc3ccc(C(=O)O)c(Cl)c3)cc21", "logD": 0.12}
{"molecule": "COc1ccc(-c2noc([C@H]3CCCCN3C(=O)C#Cc3ccccc3)n2)cc1", "logD": "> 3"}
{"molecule": "O=C([C@H]1CCCCN1C(=O)COc1ccccc1)N1Cc2ccc(O[C@@H]3CCOC3)cc2C1", "logD": 2.58}
{"molecule": "Cc1cc(C)cc(S(=O)(=O)N2CCSc3ccc(C(=O)Nc4ccc(C(=O)O)cc4)cc32)c1", "logD": 1.75}
{"molecule": "CS(=O)(=O)Nc1cccc(-c2n[nH]c([C@H]3CCCCN3C(=O)COc3ccccc3)n2)c1", "logD": 2.27}
{"molecule": "CCc1ccc(CCOc2ccc(CC3SC(=O)NC3=O)cc2)nc1 (configuration not stated) [PIOGLITAZONE]", "logD": 4}
{"molecule": "CC(=O)Nc1ccc(-n2nnc([C@H]3CCCCN3C(=O)COc3ccccc3)n2)cc1", "logD": 3.14}
{"molecule": "NC(=O)c1ccc(-c2noc([C@H]3CCCCN3C(=O)COc3ccccc3)n2)cc1", "logD": 2.66}
